- Test Protocol: A549 cytotoxicity analysis (CellTiter-Glo)
- Format: cell-based
- Conditions: human, A549 cells; Table 3
Can you tell me CC50 at 48 h for the items I'm about to list?
One number for each entry, in nM.

INSERT INTO assay_data (compound_structure_string, measure_unit, measured_number) VALUES
  ('CCCCCCCCCCCCCCCCCCCOC[C@H](COP(=O)(O)OC[C@H]1O[C@@](C#N)(c2ccc3c(N)ncnn23)[C@H](O)[C@@H]1O)OCc1cc(F)cc(C#N)c1', 'nM', 1100),
  ('CCCCCCCCCCCCCCCCOC[C@H](COP(=O)(O)OC[C@H]1O[C@@](C#N)(c2ccc3c(N)ncnn23)[C@H](O)[C@@H]1O)OCc1cc(F)cc(C#N)c1', 'nM', 370),
  ('CCCCCCCCCCCCCCCCCCOC[C@H](COP(=O)(O)OC[C@H]1O[C@@](C#N)(c2ccc3c(N)ncnn23)[C@H](O)[C@@H]1O)Oc1ccc(C#N)c(OC(C)C)c1', 'nM', 240);

stdin: For the molecule CCCCCCCC/C=C\CCCCCCCCOC[C@H](COP(=O)(O)OC[C@H]1O[C@@](C#N)(c2ccc3c(N)ncnn23)[C@H](O)[C@@H]1O)OCc1cc(F)cc(C#N)c1 , what CC50 at 48 h is on record?
stdout: 860
